Test system: MARIMO
Assay: cell viability relative to vehicle control; higher = less cytotoxic;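 note: after 48 h exposure read by CellTiter-Glo luminescence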
Conditions: 10 µM; SRSF2 genotype: SRSF2 wt/wt
MEASUREMENT_LABEL: cell viability (%)
Hi! Could you send only the number? It should be in %, unit omitted.

Some solved entries appear below for comparison.
>>> observed_value("CC(C)(C)c1cc(/C=C(\\C#N)C(N)=S)cc(C(C)(C)C)c1O")
68.3
>>> observed_value("Cc1ccc(S(=O)(=O)Nc2nc3ccccc3nc2Nc2ccc3nsnc3c2)cc1")
104
>>> observed_value("O=C(Nc1ccc(O)c(C(=O)O)c1)c1cccc(NC(=O)c2ccco2)c1")
100
>>> observed_value("O=c1nc(N2CCOCC2)oc2c(-c3cccc4c3sc3ccccc34)cccc12")
102

// next item, cell viability requested
IN: # get_value(readout= cell viability, system= MARIMO) for CO[C@@H](C)Cn1c(=O)n(C)c2cnc3ccc(-c4cncc(C(C)(C)O)c4)cc3c21
OUT: 35.8

====

# maps each entry to its cell viability
System: MARIMO
Experiment: cell viability relative to vehicle control; higher = less cytotoxic
Settings: 10 µM; SRSF2 genotype: SRSF2 wt/wt
Where a name gives a salt, the structure may show the parent alone.
Output spec: scalar in %, unitless text.

The cases that follow already have their cell viability on record.
>>> observed_value("CC/C(=C(\\c1ccc(O)cc1)c1ccc(OCCNC)cc1)c1ccccc1 [Endoxifen HCl]")
59.9
>>> observed_value("CCOc1ccccc1OCCN[C@H](C)Cc1ccc(OC)c(S(N)(=O)=O)c1 [Tamsulosin]")
103
>>> observed_value("CNC(=O)Nc1ccc(-c2nc(N3CC4CCC(C3)O4)c3cnn(C4CCC5(CC4)OCCO5)c3n2)cc1")
45
>>> observed_value("O=C1Nc2ccccc2C1=O")
105
>>> observed_value("CC(=O)O[C@H](CC(=O)O)C[N+](C)(C)C [O-Acetyl-L-carnitine hydrochloride]")
110

IN: Record request: cell viability value, item COc1cc2ncnc(Nc3ccc(O)c(Br)c3)c2cc1OC
OUT: 84.6

IN: Could you share which cell viability value was measured for C[n+]1c2n(c(=O)c3ccccc31)CCc1c-2[nH]c2ccccc12 [Dehydroevodiamine] ?
OUT: 88.2

====

Tested on: MARIMO
Assay: cell viability relative to vehicle control; higher = less cytotoxic
Details: 10 µM; SRSF2 genotype: SRSF2 P95H/wt
Counter-ions that a name gives are not always drawn.
MEASUREMENT_LABEL: cell viability (%)
Record the value in %, omitting the unit from your answer.

Examples with answers:
>>> observed_value("O=C1c2ccccc2-c2n[nH]c3cccc1c23")
72.3
>>> observed_value("C=C1CC[C@H]2O[C@]2(C)CC[C@@H]2[C@@H]1CC2(C)C [Caryophyllene oxide]")
102
>>> observed_value("Cn1c(Nc2ccc(C(F)(F)F)cc2)nc2cc(Oc3ccnc(-c4ncc(C(F)(F)F)[nH]4)c3)ccc21")
52.3
>>> observed_value("Cn1cc(-c2ccc3nnc(Sc4ccc5ncccc5c4)n3n2)cn1")
90

Now for the compound whose cell viability we want.
IN: // query cell viability value for entry NCCNc1ccc(NCCN)c2c1C(=O)c1ccncc1C2=O [Pixantrone Maleate]
OUT: 10.7

====

Test system: OCI-AML2
Assay: cell viability relative to vehicle control; higher = less cytotoxic
Settings: 10 µM; SRSF2 genotype: P95H/wt
MEASUREMENT_LABEL: cell viability (%)
Answer with a number only, understood to be in %.

IN: What measured cell viability goes with Cc1cccc(CC(=O)N2CCc3c2ccc(-c2cn(C)c4ncnc(N)c24)c3F)n1 ?
OUT: 69.3

====

Tested on: MARIMO
Assay: cell viability relative to vehicle control; higher = less cytotoxic
Conditions: 10 µM; SRSF2 genotype: SRSF2 wt/wt
List of cell viability values.
A number alone suffices; assume %.

>>> observed_value("O=C(CNc1ccc2ccccc2c1)N/N=C/c1cc(Br)c(O)c(Br)c1O")
65.4
>>> observed_value("CCOC(=O)/C=C/c1ccc(O)c(O)c1 [Ethyl caffeate]")
80.5
>>> observed_value("O=c1cc(-c2ccccc2)oc2cc(O)cc(O)c12")
107

With those in mind, consider the next molecule.
IN: Test system MARIMO; read-out cell viability; what value for COc1cc(C(=O)O)ccc1NC(=O)[C@@H]1N[C@@H](CC(C)(C)C)[C@](C#N)(c2ccc(Cl)cc2F)[C@H]1c1cccc(Cl)c1F [Idasanutlin (RG-7388)] ?
OUT: 131

====

Test system: K562
Assay: cell viability relative to vehicle control; higher = less cytotoxic
Conditions: 10 µM; SRSF2 genotype: SRSF2 wt/wt
MEASUREMENT_LABEL: cell viability (%)
Reply numerically in %, unit not repeated.

Record excerpt, results attached:
>>> observed_value("CC[C@H](c1ccc(O)cc1)[C@@H](CC)c1ccc(O)cc1 [Hexestrol (Bibenzyl)]")
96.9
>>> observed_value("CCC[C@H](NC(=O)[C@@H]1[C@H]2CCC[C@H]2CN1C(=O)[C@@H](NC(=O)[C@@H](NC(=O)c1cnccn1)C1CCCCC1)C(C)(C)C)C(=O)C(=O)NC1CC1 [Telaprevir (VX-950)]")
80.2

In the following, a different molecule is considered.
IN: Look at this molecule and give its reported cell viability. C[C@H]1O[C@@H](O[C@H]2CC[C@@]3(C)[C@@H](CC[C@]4(C)[C@@H]3C=C[C@]35OC[C@@]6(CCC(C)(C)C[C@H]63)[C@H](O)C[C@]54C)[C@]2(C)CO)[C@H](O)[C@@H](O[C@@H]2O[C@H](CO)[C@@H](O)[C@H](O)[C@H]2O)[C@H]1O [Saikosaponin D]
OUT: 0.4

====

Tested on: OCI-AML2
Test: cell viability relative to vehicle control; higher = less cytotoxic
Conditions: 10 µM; SRSF2 genotype: P95H/wt
Where a name gives a salt, the structure may show the parent alone.
Below, each of the molecules is paired with its reported cell viability value.
Give just the number in %; leave the unit off.

>>> observed_value("NN1CC(=O)NC1=O [1-Aminohydantoin Hydrochloride]")
89.2
>>> observed_value("CCCCNc1ncc(C(=O)NCc2ccc(-n3ccnc3)cc2)c(NC2CCC(O)CC2)n1 (centres undefined)")
48.4
>>> observed_value("Cn1cc(C(=O)Nc2ccc3c(c2)OCCO3)c2ccccc2c1=O")
80.3
>>> observed_value("COc1cc(C(C)=O)ccc1O [Apocynin (Acetovanillone)]")
93
>>> observed_value("Nc1ccc(Cl)cc1C(=O)C(F)(F)F [4-Chloro-2-(trifluoroacetyl)aniline hydrochl]")
105
>>> observed_value("COc1ccc(Cn2c3ncnc4c(ncn4Cc4ccc(OC)cc4)c-3nc2=O)cc1")
4.12

IN: Record request: cell viability value, item C[n+]1c2n(c(=O)c3ccccc31)CCc1c-2[nH]c2ccccc12 [Dehydroevodiamine hydrochloride]
OUT: 86.8

IN: Recorded cell viability of Nc1nc(N)nc(-c2cc(Cl)ccc2Cl)n1 [Irsogladine] , please.
OUT: 108

IN: Please report the recorded cell viability for O=C(O)CCCCCCCC(O)C(O)CCCCCCO (centres undefined) [Aleuritic Acid] .
OUT: 97.2

====

Overview of reported cell viability across a group of molecules:
System: K562
Test: cell viability relative to vehicle control; higher = less cytotoxic
Settings: 10 µM; SRSF2 genotype: SRSF2 wt/wt
# number then unit; no other words

>>> observed_value("CS(=O)(=O)OCCCCOS(C)(=O)=O [Busulfan (Myleran, Busulfex)]")
"98.6%"

IN: API: value(readout=cell viability, system=K562) for record O=C1Nc2ccc(CN3C(=O)CSC3=O)cc2/C1=C/c1cc(CN2CCOCC2)c[nH]1
OUT: 103%

IN: Request: cell viability, test system K562, entry CCO[C@@H]1OC(=O)C[C@@H]1NC(=O)[C@@H]1CCCN1C(=O)[C@@H](NC(=O)c1ccc(N)c(Cl)c1)C(C)(C)C [Belnacasan (VX-765)]
OUT: 94%

IN: Quick check: cell viability on K562, item C[n+]1cc2c3c(ccc2c2ccc4cc5c(cc4c21)OCO5)OCO3 [Sanguinarine chloride] ?
OUT: 0.74%

====

Reported cell viability values for the following compounds.
System: MOLM14
Assay: cell viability relative to vehicle control; higher = less cytotoxic
Conditions: 10 µM; SRSF2 genotype: SRSF2 wt/wt
Where a name gives a salt, the structure may show the parent alone.
Report the value in % with no unit label.

Some compounds with known cell viability results, for comparison:
>>> observed_value("O=C1C2=C(CCN(Cc3ccccc3)C2)N2CCN=C2N1Cc1ccc(C(F)(F)F)cc1")
34.1
>>> observed_value("CN(CCNCc1cn(Cc2ccc(Cl)cc2)nn1)CCNc1ccnc2cc(Cl)ccc12")
0.55
>>> observed_value("CC1=CC(=O)CC(C)(C)C1(O)/C=C/C(C)=C\\C(=O)O (stereo not drawn) [Abscisic Acid (Dormin)]")
101

IN: Look up cell viability for this compound: CCCCc1nc(Cl)c(CO)n1Cc1ccc(-c2ccccc2-c2nnn[nH]2)cc1
OUT: 104

IN: Please give the measured cell viability for this compound: O=C1[C@H]2CCCC[C@H]2C(=O)N1CCCCN1CCN(c2nsc3ccccc23)CC1 [Perospirone hydrochloride]
OUT: 82.5

IN: Query: cell viability; subject: CC(C)(C)NC(=O)N[C@H](C(=O)N1C[C@H]2[C@@H]([C@H]1C(=O)NC(CC1CCC1)C(=O)C(N)=O)C2(C)C)C(C)(C)C (stereo partly drawn)
OUT: 84.3

IN: What value of cell viability has been reported for the following compound? COc1cc2nc(N3CCN(C(=O)c4ccco4)CC3)nc(N)c2cc1OC [Prazosin HCl]
OUT: 97

IN: What measured cell viability goes with CC(=O)Nc1cccc2c1c(Sc1ccc(Cl)cc1)c(C)n2CC(=O)O ?
OUT: 106
